Source of measurements: ChEMBL document CHEMBL4368870

- Tested on: HL-60
- experimental.protocol: Antiproliferative activity against human HL60 cells after 48 hrs by MTT assay
- Assay type: functional, cell-based
- condition.notes: HL-60, 48 h
value.kind: IC50 (µM)
API: value field is a number in µM; no unit string.

C=CC(=O)Nc1ccc(-c2nc(Cl)cc(Nc3ccc(C(=O)N(CC)CC)cc3)n2)cc1
9.34
C=CC(=O)N1CCC[C@@H](n2nc(-c3ccc(Oc4ccccc4)cc3)c3c(N)ncnc32)C1
3.57
C=CC(=O)Nc1ccc(-c2nc(Cl)cc(Nc3ccc(C(=O)N4CCOCC4)cc3)n2)cc1
5.94
C=CC(=O)Nc1ccc(-c2nc(Cl)cc(Nc3ccc(C(=O)Nc4cccc(C)c4)cc3)n2)cc1
3.66
C=CC(=O)Nc1ccc(-c2nc(Cl)cc(Nc3ccc(C(=O)Nc4cc(C(F)(F)F)cc(C(F)(F)F)c4)cc3)n2)cc1
4.79

Lab request: please report IC50 under test system HL-60 for `C=CC(=O)Nc1ccc(-c2nc(Cl)cc(Nc3ccc(C(=O)N4CCCC4)cc3)n2)cc1`
15.8

Lab request: please report IC50 under test system HL-60 for `C=CC(=O)Nc1ccc(-c2nc(Cl)cc(Nc3ccc(C(=O)Nc4cc(C)ccc4C)cc3)n2)cc1`
14.9
